- PROTOCOL TEXT: Human HepG2 cell viability assay in 384 well format
- Format: toxicity, cell-based
- Design: dose 125 nL, time 70.5 hour; concentration not given beside the values
- CONDITION CONTEXT: HepG2 cells, read-out: Inhibition
MEASUREMENT NAME: cytotoxicity at 70.5 h (%)
Respond with the bare value in %.

Previously resolved entries follow.
[Q] Return reported cytotoxicity at 70.5 h; argument: COc1ncc(C)cc1NC(=O)COc1ccccc1F
[A] 11.7

[Q] Item COc1ccc(CNC(=O)CN2CCc3ccccc32)cc1 has what recorded cytotoxicity at 70.5 h?
[A] 27

[Q] Given the entry O=C(NCCc1csc(-c2ncccn2)n1)c1cnn2c1CCCC2 , report its measured cytotoxicity at 70.5 h.
[A] -18.5

[Q] Which measured cytotoxicity at 70.5 h value corresponds to COc1cccc(-c2noc(C3CCN(Cc4ccc(C)cc4)C3)n2)c1 (stereo unspecified) ?
[A] 23.2

Continuing:
[Q] Find the recorded cytotoxicity at 70.5 h belonging to O=C([C@@H]1C[C@H]2[C@H](CCN2Cc2nccs2)O1)N1CCOCC1 and report it.
[A] -8.03

====

This section presents molecules with their documented cytotoxicity at 70.5 h values.
- PROTOCOL TEXT: Human HepG2 cell viability assay in 384 well format
- Assay type: toxicity, cell-based
- Design: dose 125 nL, time 70.5 hour; concentration not given beside the values
- CONDITION CONTEXT: HepG2 cells, read-out: Inhibition
Express it in %; write the number only.

# count of solved cases: 6
[Q] What does the data say about its cytotoxicity at 70.5 h? Entry: NC(=O)C1(c2cnccn2)CCCN1Cc1cc2ccccc2o1 (configuration not stated)
[A] -9.2

[Q] Would you mind telling me what cytotoxicity at 70.5 h value was observed for O=C(c1ccccn1)N1CCC2(CC1)COC(COc1cccnc1)C2 (configuration not stated) ?
[A] -7.52

[Q] // query cytotoxicity at 70.5 h value for entry CCN(Cc1nccn1C)C(=O)c1ccc(NCc2ccc(C)o2)nc1
[A] 27.2

[Q] Query: cytotoxicity at 70.5 h; subject: CC(C)S(=O)(=O)N1CCCC(c2cccc(C(=O)O)c2)C1 (configuration not stated)
[A] -10.1

[Q] Query: cytotoxicity at 70.5 h; subject: COCc1nc2cc(NCc3sc(C)nc3C)ccc2o1
[A] -4.53

[Q] Quick one: cytotoxicity at 70.5 h of C=C(C)Cn1nc(C)c(CN2CCN(C3CCCCC3)C(=O)C2)c1C ?
[A] 1.66

***
[Q] # query: cytotoxicity at 70.5 h of entry CC(C)(CO)CNC(=O)c1cc(-c2cc[nH]n2)n2ccccc12
[A] -97.3

====

Each item that follows carries a reported cytotoxicity at 70.5 h.
- PROTOCOL TEXT: Human HepG2 cell viability assay in 384 well format
- Format: toxicity, cell-based
- Set-up: dose 125 nL, time 70.5 hour; concentration not given beside the values
- CONDITION CONTEXT: HepG2 cells, read-out: Inhibition
Kindly provide the numeric value in % only, without the unit symbol.

Before answering, review these 5 worked examples.
[Q] If you can, please state the reported cytotoxicity at 70.5 h value of O=C(NS(=O)(=O)c1cccnc1)C1CC(c2ccccc2)=NO1 (stereo unspecified) .
[A] -4.92

[Q] Value lookup for cytotoxicity at 70.5 h; key = Cc1ccccc1C(N)c1ccncc1 (stereo unspecified)
[A] -3.67

[Q] I would be grateful if you could share the reported cytotoxicity at 70.5 h for CCC(NC1CCN(C(=O)c2ccccc2)CC1)c1cccs1 (stereo unspecified) .
[A] -16.9

[Q] May I ask what cytotoxicity at 70.5 h has been recorded for CCc1nc(C(=O)N2CCOCC2)nn1-c1ccccc1Cl ?
[A] -3.34

[Q] Fill in the blank: the reported cytotoxicity at 70.5 h of CCc1cn[nH]c1C1CCCN(C(=O)c2cnc(NC(C)C)nc2)C1 (stereo unspecified) is ____.
[A] -5.16

Continuing:
[Q] Look up cytotoxicity at 70.5 h for this compound: COCC(C)(NC(=O)c1cc(Cl)c(-n2cccc2)cc1OC)C(N)=O (stereo unspecified)
[A] -2.57

[Q] Given the entry O=C(Cc1ccc(F)cc1Cl)N[C@@H]1CCNC[C@H]1O , report its measured cytotoxicity at 70.5 h.
[A] -6

[Q] Please report the recorded cytotoxicity at 70.5 h for CC(C)(C)n1ncc2c(=O)[nH]c(N3CC(O)C3)nc21 .
[A] 0.684

[Q] Recorded cytotoxicity at 70.5 h for CN(C)C(=O)N1CCN(C)c2ncccc2C1 , please?
[A] -7.19

[Q] Suppose we examine the compound CS(=O)(=O)N1CCO[C@@H]2CN(C(=O)N3CCCC3)CC[C@@H]2C1 ; what cytotoxicity at 70.5 h value has been reported?
[A] -8.13

[Q] Consider the compound NC(=O)c1ccc(OCC(=O)N2CCCC2c2ccc[nH]2)cc1 (stereo unspecified) and give its measured cytotoxicity at 70.5 h.
[A] 42.3
